Data origin: the supplement of paper PMC10567573

B1: ZNF511 (parent)
chain: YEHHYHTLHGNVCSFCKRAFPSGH

variants of: B1; assay: protein stability index of a GFP-peptide fusion (GPS, HEK-293T) (PSI 1-6); higher = more stable; settings: c terminus: a fixed tail appended;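 also: lentivirally expressed fusions sorted by FACS into six bins by GFP to DsRed ratio, PSI derived from sequencing read proportions per bin multiplied by bin number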
Outcome: Y for protein stability index of at least 2; N for anything lower.

[[record]]
variant_annotation = "G23I"
class_label = "N"

[[record]]
variant_annotation = "Y5H"
class_label = "Y"

[[record]]
variant_annotation = "H3K"
class_label = "Y"

[[record]]
variant_annotation = "T7Q"
class_label = "N"

[[record]]
variant_annotation = "A19P"
class_label = "N"

[[record]]
variant_annotation = "F15N"
class_label = "Y"

[[record]]
variant_annotation = "S22C"
class_label = "Y"

[[record]]
variant_annotation = "H4L"
class_label = "Y"

[[record]]
variant_annotation = "L8K"
class_label = "Y"

[[record]]
variant_annotation = "N11Q"
class_label = "Y"

[[record]]
variant_annotation = "P21V"
class_label = "Y"

[[record]]
variant_annotation = "H4V"
class_label = "N"

[[record]]
variant_annotation = "Y5Q"
class_label = "Y"

[[record]]
variant_annotation = "H3V"
class_label = "Y"

[[record]]
variant_annotation = "F20W"
class_label = "Y"

[[record]]
variant_annotation = "E2W"
class_label = "Y"

[[record]]
variant_annotation = "G23D"
class_label = "Y"

[[record]]
variant_annotation = "G10D"
class_label = "Y"

[[record]]
variant_annotation = "H6Q"
class_label = "N"

[[record]]
variant_annotation = "H3S"
class_label = "Y"

[[record]]
variant_annotation = "A19C"
class_label = "Y"

[[record]]
variant_annotation = "H6E"
class_label = "Y"

[[record]]
variant_annotation = "E2S"
class_label = "Y"

[[record]]
variant_annotation = "N11E"
class_label = "Y"

[[record]]
variant_annotation = "T7Y"
class_label = "Y"

[[record]]
variant_annotation = "C13G"
class_label = "Y"

[[record]]
variant_annotation = "Y1L"
class_label = "Y"

[[record]]
variant_annotation = "H9N"
class_label = "Y"

[[record]]
variant_annotation = "H6S"
class_label = "N"

[[record]]
variant_annotation = "Y1K"
class_label = "Y"

[[record]]
variant_annotation = "F15I"
class_label = "Y"

[[record]]
variant_annotation = "H4W"
class_label = "N"

[[record]]
variant_annotation = "H3Q"
class_label = "Y"

[[record]]
variant_annotation = "Y5G"
class_label = "Y"

[[record]]
variant_annotation = "C13N"
class_label = "Y"

[[record]]
variant_annotation = "S14Q"
class_label = "Y"

[[record]]
variant_annotation = "V12A"
class_label = "Y"

[[record]]
variant_annotation = "K17D"
class_label = "Y"

[[record]]
variant_annotation = "K17Y"
class_label = "N"

[[record]]
variant_annotation = "H3M"
class_label = "N"

[[record]]
variant_annotation = "Y5E"
class_label = "Y"

[[record]]
variant_annotation = "S22Q"
class_label = "N"

[[record]]
variant_annotation = "H24F"
class_label = "Y"

